All figures here come from patent US20230150981A1.

Entries annotated with measured IC50
# target-entity: SSTR1 (Homo sapiens, UniProt P30872)
# Construct: purchased Perkin Elmer ES-520-M400UA; host or cells: CHO-K1 membranes
# Sequence (P30872 whole entry): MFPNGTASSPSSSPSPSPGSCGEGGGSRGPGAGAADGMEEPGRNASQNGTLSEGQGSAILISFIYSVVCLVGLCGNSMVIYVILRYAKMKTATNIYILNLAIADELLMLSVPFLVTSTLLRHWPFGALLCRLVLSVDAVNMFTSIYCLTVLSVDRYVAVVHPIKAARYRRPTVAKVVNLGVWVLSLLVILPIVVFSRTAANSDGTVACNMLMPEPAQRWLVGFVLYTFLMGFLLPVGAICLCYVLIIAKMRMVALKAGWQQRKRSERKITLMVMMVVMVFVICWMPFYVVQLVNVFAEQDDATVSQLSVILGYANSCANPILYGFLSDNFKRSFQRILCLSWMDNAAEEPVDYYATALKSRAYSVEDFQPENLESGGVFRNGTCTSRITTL
# procedure-details: SSTR1 I-125 somatostatin competition binding assay for selectivity versus SSTR1 (CHO-K1 membranes)
# study-conditions: competition with I-125 somatostatin, membranes from CHO-K1 overexpressing SSTR1; read-out: SSTR1 Binding pIC50 (converted)
# Procedure: SSTR1 I-125 Somatostatin Competition Binding Assay for Selectivity Versus SSTR1 Membranes from CHO-K1 cells overexpressing SSTR1 are purchased from Perkin Elmer (catalog number ES-520-M400UA). Test compounds are suspended in DMSO and then diluted in assay buffer (25 mM HEPES pH 7.4, 10 mM MgCl2, 1 mM CaCl2), 0.5% BSA) plus 0.4 nM I-125 labeled somatostatin (Perkin Elmer catalog number NEX389). […] The filters are then read in a MicroBeta scintillation counter. […]
Form entry: value (µM) — number only.

Known results for compounds:
compound="Cc1cccnc1OCC1(NC(=O)[C@H](C)[C@@H]2CCCN2C)CC1 (single isomer, unassigned) [Example 127]" endpoint_label=IC50 numeric_value=7.94
compound="Cc1cc2ccccc2c(C(C)(C)NC(=O)C[C@@H]2CCCN2C)n1 [Example 22]" endpoint_label=IC50 numeric_value=2.51

The observed IC50 for C[C@H](NC(=O)CC1CCCCN1C)c1ccc(Cl)cc1 (stereo partly shown) [Example 60] when tested with SSTR1 (Homo sapiens, UniProt P30872) stands at 25.1

The observed IC50 for C[C@@H](CN1CCC1)C(=O)NC(C)(C)c1ccccc1Cl (single isomer, unassigned) [Example 134] when tested with SSTR1 (Homo sapiens, UniProt P30872) stands at 6.31

The observed IC50 for Cc1cccc2c(C(C)(C)NC(=O)C[C@H]3CCCN3C)nccc12 [Example 17] when tested with SSTR1 (Homo sapiens, UniProt P30872) stands at 5.01

The observed IC50 for CN1CCC[C@@H]1CC(=O)NC(C)(C)c1nn(C)c2ccccc12 [Example 3] when tested with SSTR1 (Homo sapiens, UniProt P30872) stands at 5.01

The observed IC50 for O=C(CCN1CCC1)NC(c1ccc(F)cc1)C(F)(F)F (single isomer, unassigned) [Example 190] when tested with SSTR1 (Homo sapiens, UniProt P30872) stands at 3.16

The observed IC50 for Cc1cccnc1OCC(C)(C)NC(=O)C[C@H]1CCCN1C [Example 46] when tested with SSTR1 (Homo sapiens, UniProt P30872) stands at 25.1

The observed IC50 for CC[C@@H](CN1CCC1)C(=O)NC(C)(C)c1ccc(C)cc1 (single isomer, unassigned) [Example 187] when tested with SSTR1 (Homo sapiens, UniProt P30872) stands at 1.58

The observed IC50 for CC(CN1CCC1)C(=O)NC(C)(C)c1ccccc1Cl (stereo not shown) [Example 132] when tested with SSTR1 (Homo sapiens, UniProt P30872) stands at 20

The observed IC50 for O=C(CCN1CCC1)N[C@H](c1cccc(Cl)c1)C(F)F [Example 202] when tested with SSTR1 (Homo sapiens, UniProt P30872) stands at 6.31

The observed IC50 for Cc1cccc(C(C)(C)NC(=O)CCN2CCC2)c1Cl [Example 161] when tested with SSTR1 (Homo sapiens, UniProt P30872) stands at 6.31

The observed IC50 for CC(C)[C@@H](CN1CCC1)C(=O)N[C@H](c1cccc(F)c1)C(F)F [Example 194] when tested with SSTR1 (Homo sapiens, UniProt P30872) stands at 0.631

The observed IC50 for Cc1cccc2c(C(C)(C)NC(=O)CC3CCCN3C)nn(C)c12 (stereo not shown) [Example 1] when tested with SSTR1 (Homo sapiens, UniProt P30872) stands at 10

The observed IC50 for COc1c(C)cccc1C(C)(C)NC(=O)[C@H](C)CN1CCC1 (single isomer, unassigned) [Example 146] when tested with SSTR1 (Homo sapiens, UniProt P30872) stands at 2.51

The observed IC50 for CC(C)[C@@H](CN1CCC1)C(=O)N[C@H](c1ccc(F)cc1)C(F)F [Example 196] when tested with SSTR1 (Homo sapiens, UniProt P30872) stands at 0.501

The observed IC50 for CN1CCC[C@@H]1CC(=O)NC(C)(C)c1nccc2ccccc12 [Example 16] when tested with SSTR1 (Homo sapiens, UniProt P30872) stands at 3.16

The observed IC50 for CC(C)(NC(=O)CCN1CCC1)c1cccc(Cl)c1 [Example 164] when tested with SSTR1 (Homo sapiens, UniProt P30872) stands at 31.6

The observed IC50 for CC[C@@H](CN1CCC1)C(=O)NC(C)(C)c1ccccc1F (single isomer, unassigned) [Example 200] when tested with SSTR1 (Homo sapiens, UniProt P30872) stands at 5.01
